Source: patent US9387209B2

test system: PC 12 cells; assay: Neurite outgrowth assay, PC 12; type: cell-based; details: Rattus norvegicus
Metric: log10 of EC50 (log10 of the value in µM)
Recorded EC50 (log10, µM)

Cc1nc2cc(/C=C/C(=O)NO)ccc2c(=O)n1Cc1ccccc1 [Compound 1e]; 0.91
CCc1nc2cc(/C=C/C(=O)NO)ccc2c(=O)n1CCc1ccccc1 [Compound 1i]; 0.86
CCc1nc2cc(/C=C/C(=O)NO)ccc2c(=O)n1CCc1ccc(OC)cc1 [Compound 1m]; 1.31
Cc1nc2cc(/C=C/C(=O)Nc3ccccc3N)ccc2c(=O)n1CCc1ccccc1 [Compound 6a]; 0.82
O=C(/C=C/c1ccc2c(=O)n(CCc3ccccc3)c(C3CC3)nc2c1)NO [Compound 1k]; -0.12

I have 4 compounds here; please give me log10 of EC50 for each one.
1. CCc1nc2cc(/C=C/C(=O)NO)ccc2c(=O)n1CCCc1ccccc1 [Compound 1j]
2. CCc1nc2cc(Cl)c(/C=C/C(=O)NO)cc2c(=O)n1CCc1ccccc1 [Compound 3b]
3. CCc1nc2ccc(Cc3ccc(C(=O)NO)cc3)cc2c(=O)n1CCc1ccccc1 [Compound 4a]
4. O=C(/C=C/c1ccc2c(=O)n(CCc3ccccc3)cnc2c1)NO [Compound 1h]

Output:
1: 0.84; 2: 1.03; 3: 0.46; 4: 1.16

* * *

biological target: zinc-mediated β-amyloid aggregation (Homo sapiens, UniProt P05067); experiment: Anti-amyloid aggregation assay, BCA; assay type: biochemical; conditions: detected by BCA
Sequence (P05067 672-711 limits assumed): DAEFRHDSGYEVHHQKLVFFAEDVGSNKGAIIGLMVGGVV
pIC50: −log10 of the molar value.
Decide using pIC50: a value greater than or equal to 5 is met, a smaller one is not met.

O=C(/C=C/c1ccc2c(=O)n(CCc3ccccc3)cnc2c1)NO; not met

Input: Is pIC50 for `CCc1nc2cc(/C=C/C(=O)NO)ccc2c(=O)n1CCc1ccccc1` at or above 5?
Output: met

* * *

I'd be grateful if you could share measured IC50 for these entries.
assay: MTT or SRB assay for cytotoxicity, HCT116; format: cell-based; conditions: human, HCT-116 cells, read-out: cytotoxicity IC50 (grading) HCT116

CCc1nc2c(Cc3ccc(C(=O)NO)cc3)cccc2c(=O)n1CCc1ccccc1 [Compound 4c]; ≥ 10 µM

Working through the 7 compounds below one at a time, give IC50 for each.
1. CCc1nc2cc(/C=C/C(=O)NO)ccc2c(=O)n1CCc1ccc(OC)cc1 [Compound 1m]
2. CCc1nc2cc(/C=C/C(=O)NO)c(F)cc2c(=O)n1CCc1ccccc1 [Compound 2a]
3. CCc1nc2c(-c3ccc(C(=O)NO)cc3)cccc2c(=O)n1CCc1ccccc1 [Compound 5a]
4. CCc1nc2cc(Cc3ccc(C(=O)NO)cc3)ccc2c(=O)n1CCc1ccccc1 [Compound 4b]
5. CCc1nc2cc(Cl)c(/C=C/C(=O)NO)cc2c(=O)n1CCc1ccccc1 [Compound 3b]
6. CCc1nc2cc(/C=C/C(=O)NO)ccc2c(=O)n1CCc1ccc(F)cc1 [Compound 1n]
7. CCc1nc2cc(F)c(/C=C/C(=O)NO)cc2c(=O)n1CCc1ccccc1 [Compound 3a]

Output:
1 to 10 µM
1 to 10 µM
≥ 10 µM
1 to 10 µM
≥ 10 µM
1 to 10 µM
≥ 10 µM

Give IC50 for all compounds that follow.
1. Cc1nc2cc(/C=C/C(=O)Nc3ccccc3N)ccc2c(=O)n1CCc1ccccc1 [Compound 6a]
2. CCc1nc2cc(/C=C/C(=O)NO)ccc2c(=O)n1CCc1ccccc1 [Compound 1i]

Output:
1: ≥ 10 µM; 2: ≥ 10 µM

* * *

target: human histone deacetylases (HDAC) 1 (Homo sapiens)
Sequence (Q13547 whole entry): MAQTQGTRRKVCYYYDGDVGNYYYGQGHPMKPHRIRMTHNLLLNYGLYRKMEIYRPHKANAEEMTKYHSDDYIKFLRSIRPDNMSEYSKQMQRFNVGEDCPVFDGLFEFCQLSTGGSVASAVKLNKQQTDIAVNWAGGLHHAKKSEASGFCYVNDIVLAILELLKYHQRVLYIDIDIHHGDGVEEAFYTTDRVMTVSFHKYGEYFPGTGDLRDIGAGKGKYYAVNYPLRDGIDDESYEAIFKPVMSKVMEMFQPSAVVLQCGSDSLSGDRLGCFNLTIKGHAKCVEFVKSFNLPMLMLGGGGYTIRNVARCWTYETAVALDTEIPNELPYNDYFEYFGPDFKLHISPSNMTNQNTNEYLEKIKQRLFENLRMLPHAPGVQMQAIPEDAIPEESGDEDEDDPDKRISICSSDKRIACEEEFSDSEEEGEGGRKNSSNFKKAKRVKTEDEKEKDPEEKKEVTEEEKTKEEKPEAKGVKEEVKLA
pIC50: −log10 of the molar value.
Metric: pIC50

Record excerpt, results attached:
Cc1nc2cc(/C=C/C(=O)NO)ccc2c(=O)n1CCc1c[nH]c2ccccc12; 6.00 to 7.00
CCc1nc2cc(/C=C/C(=O)NO)ccc2c(=O)n1CCc1ccc(OC)cc1; 5.00 to 6.00
Cc1nc2cc(/C=C/C(=O)Nc3ccccc3N)ccc2c(=O)n1CCc1ccccc1; 5.00 to 6.00

Please give pIC50 for each item listed below.
1. Cc1nc2ccc(/C=C/C(=O)NO)cc2c(=O)n1-c1ccccc1
2. Cc1nc2c(/C=C/C(=O)NO)cccc2c(=O)n1-c1ccccc1

Output:
["5.00 to 6.00", "< 5.00"]

* * *

Consider the following molecules; for each one, report its IC50.
molecular target: zinc-mediated β-amyloid aggregation (Homo sapiens); test: Anti-amyloid aggregation assay, CR (Congo red); type: biochemical; conditions: detected by CR
Give bare numbers, in µM.

Previously resolved entries follow.
Cc1nc2cc(/C=C/C(=O)NO)ccc2c(=O)n1CCc1ccccc1; 43.1
CCc1nc2cc(/C=C/C(=O)NO)ccc2c(=O)n1CCc1ccccc1; 5.5
Cc1nc2cc(/C=C/C(=O)NO)ccc2c(=O)n1Cc1ccccc1; 5.8
Cc1nc2cc(/C=C/C(=O)NO)ccc2c(=O)n1CCc1c[nH]c2ccccc12; 15.5
Cc1nc2ccc(/C=C/C(=O)NO)cc2c(=O)n1-c1ccccc1; 4.8

Consider the following items and state reported IC50 for each.
1. Cc1nc2c(/C=C/C(=O)NO)cccc2c(=O)n1-c1ccccc1
2. Cc1nc2cc(/C=C/C(=O)Nc3ccccc3N)ccc2c(=O)n1CCc1ccccc1
3. Cc1nc2cccc(/C=C/C(=O)NO)c2c(=O)n1-c1ccccc1
4. O=C(/C=C/c1ccc2c(=O)n(CCc3ccccc3)cnc2c1)NO

Output:
14.5
30.9
30.2
14.6

* * *

assay: MTT or SRB assay for cytotoxicity, HepG2; type: cell-based; conditions: human, HepG2 cells, read-out: cytotoxicity IC50 (grading) HepG2
pIC50: −log10 of the molar value.
Metric: pIC50

Below: 5 compounds and their reported pIC50.
CCc1nc2cc(Cl)c(/C=C/C(=O)NO)cc2c(=O)n1CCc1ccccc1; ≤ 5.00
CCc1nc2cc(/C=C/C(=O)NO)ccc2c(=O)n1CCc1ccc(OC)cc1; 5.00 to 6.00
CCc1nc2cc(Cc3ccc(C(=O)NO)cc3)ccc2c(=O)n1CCc1ccccc1; 6.00 to 7.00
CCc1nc2cc(F)c(/C=C/C(=O)NO)cc2c(=O)n1CCc1ccccc1; ≤ 5.00
CCc1nc2c(-c3ccc(C(=O)NO)cc3)cccc2c(=O)n1CCc1ccccc1; ≤ 5.00

I need pIC50 for every entry listed below, if you could help.
1. Cc1nc2cc(/C=C/C(=O)Nc3ccccc3N)ccc2c(=O)n1CCc1ccccc1
2. CCc1nc2cc(/C=C/C(=O)NO)ccc2c(=O)n1CCc1ccc(F)cc1
3. CCc1nc2c(Cc3ccc(C(=O)NO)cc3)cccc2c(=O)n1CCc1ccccc1

Output:
["6.00 to 7.00", "5.00 to 6.00", "5.00 to 6.00"]

Go through the items and report each one's pIC50.
1. CCc1nc2cc(/C=C/C(=O)NO)ccc2c(=O)n1CCc1ccccc1
2. CCc1nc2cc(/C=C/C(=O)NO)c(F)cc2c(=O)n1CCc1ccccc1

Output:
1. 5.00 to 6.00
2. 5.00 to 6.00

* * *

assay: MTT or SRB assay for cytotoxicity, PANC1; assay type: cell-based; conditions: human, PANC-1 cells, read-out: cytotoxicity IC50 (grading) PANC1
Would you mind telling me the reported IC50 of each entry?

Example molecules with recorded IC50:
CCc1nc2cc(/C=C/C(=O)NO)ccc2c(=O)n1CCc1ccc(F)cc1; 1 to 10 µM
CCc1nc2c(-c3ccc(C(=O)NO)cc3)cccc2c(=O)n1CCc1ccccc1; 1 to 10 µM
CCc1nc2c(Cc3ccc(C(=O)NO)cc3)cccc2c(=O)n1CCc1ccccc1; ≥ 10 µM

Attention now turns to another entry.
Input: Any idea what its IC50 is? The molecule is `Cc1nc2cc(/C=C/C(=O)Nc3ccccc3N)ccc2c(=O)n1CCc1ccccc1`
Output: 1 to 10 µM

* * *

target: human histone deacetylases (HDAC) 8 (Homo sapiens); experiment: HDAC enzymatic assay, HDAC8; assay type: biochemical; conditions: HDAC8; read-out: IC50 HDAC8 (grading)
Sequence (Q9BY41 whole entry): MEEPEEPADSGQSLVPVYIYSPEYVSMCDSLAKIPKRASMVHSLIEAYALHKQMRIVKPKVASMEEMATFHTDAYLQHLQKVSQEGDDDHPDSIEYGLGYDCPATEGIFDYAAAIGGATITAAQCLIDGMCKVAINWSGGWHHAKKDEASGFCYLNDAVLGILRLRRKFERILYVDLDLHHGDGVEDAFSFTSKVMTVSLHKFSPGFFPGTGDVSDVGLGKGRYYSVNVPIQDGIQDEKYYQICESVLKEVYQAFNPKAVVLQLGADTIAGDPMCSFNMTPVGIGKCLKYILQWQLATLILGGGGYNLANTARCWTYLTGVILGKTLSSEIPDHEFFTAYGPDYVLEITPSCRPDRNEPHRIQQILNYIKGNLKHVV
Metric: IC50

Cc1nc2c(/C=C/C(=O)NO)cccc2c(=O)n1-c1ccccc1; 100 to 1000 nM
Cc1nc2cc(/C=C/C(=O)NO)ccc2c(=O)n1CCc1c[nH]c2ccccc12; 1000 to 10000 nM
Cc1nc2ccc(/C=C/C(=O)NO)cc2c(=O)n1-c1ccccc1; 100 to 1000 nM
O=C(/C=C/c1ccc2c(=O)n(CCc3ccccc3)cnc2c1)NO; 100 to 1000 nM
CCc1nc2ccc(Cc3ccc(C(=O)NO)cc3)cc2c(=O)n1CCc1ccccc1; < 100 nM

Below are some compounds; for each one, tell me its IC50.
1. CCc1nc2cc(F)c(/C=C/C(=O)NO)cc2c(=O)n1CCc1ccccc1
2. Cc1nc2cc(/C=C/C(=O)Nc3ccccc3N)ccc2c(=O)n1CCc1ccccc1
3. Cc1nc2cccc(/C=C/C(=O)NO)c2c(=O)n1-c1ccccc1
4. Cc1nc2cc(/C=C/C(=O)NO)ccc2c(=O)n1CCc1ccccc1
5. CCc1nc2cc(/C=C/C(=O)NO)ccc2c(=O)n1CCc1ccc(OC)cc1
6. CCc1nc2cc(/C=C/C(=O)NO)ccc2c(=O)n1CCc1ccc(F)cc1
7. CCc1nc2cc(/C=C/C(=O)NO)c(F)cc2c(=O)n1CCc1ccccc1
8. CCc1nc2cc(/C=C/C(=O)NO)ccc2c(=O)n1CCc1ccccc1

Output:
1. 100 to 1000 nM
2. > 10000 nM
3. 1000 to 10000 nM
4. 1000 to 10000 nM
5. 100 to 1000 nM
6. 100 to 1000 nM
7. 1000 to 10000 nM
8. 1000 to 10000 nM

Could I get IC50 for every one of these entries?
1. Cc1nc2cc(/C=C/C(=O)NO)ccc2c(=O)n1Cc1ccccc1
2. CCc1nc2cc(Cl)c(/C=C/C(=O)NO)cc2c(=O)n1CCc1ccccc1
3. CCc1nc2cc(/C=C/C(=O)NO)ccc2c(=O)n1CCCc1ccccc1

Output:
1000 to 10000 nM
1000 to 10000 nM
1000 to 10000 nM
